Known IC50 of a selection of compounds
- target: KRAS G12D:SOS1 (Homo sapiens, UniProt P01116, G12D)
- method: KRAS G12D:SOS1 GDP TR-FRET assay
- assay conditions: GST-KRAS G12D 37.5 nM, GDP 10 μM, His-SOS1 18 nM

{"compound": "Cc1cc(N)nc(-c2c(Cl)cc3c(N4CC5CCC(C4)N5)nc(OCC45CCCN4CC(F)C5)nc3c2F)c1C(F)(F)F (stereo not drawn)", "target": "KRAS G12D:SOS1 (Homo sapiens, UniProt P01116, G12D)", "readout units": "nM", "IC50": 7.6}
{"compound": "C[C@@H](CN1CCC(F)(F)CC1)Oc1nc(N2CC3CCC(C2)N3)c2cc(Cl)c(-c3ccc(F)c4sc(N)nc34)c(F)c2n1", "target": "KRAS G12D:SOS1 (Homo sapiens, UniProt P01116, G12D)", "readout units": "nM", "IC50": 4.2}
{"compound": "CN1C[C@H](F)C[C@H]1COc1nc(N2CC3CCC(C2)N3)c2cc(Cl)c(-c3ccc(F)c4sc(N)nc34)c(Cl)c2n1", "target": "KRAS G12D:SOS1 (Homo sapiens, UniProt P01116, G12D)", "readout units": "nM", "IC50": 5.1}
{"compound": "C[C@@H](CN1CCC(C#N)CC1)Oc1nc(N2CC3CCC(C2)N3)c2cc(Cl)c(-c3ccc(F)c4sc(N)nc34)c(F)c2n1", "target": "KRAS G12D:SOS1 (Homo sapiens, UniProt P01116, G12D)", "readout units": "nM", "IC50": 2.9}
{"compound": "C[C@@H](CN1CCCCC1)Oc1nc(N2CC3CCC(C2)N3)c2cc(Cl)c(-c3ccc(F)c4sc(N)nc34)c(F)c2n1", "target": "KRAS G12D:SOS1 (Homo sapiens, UniProt P01116, G12D)", "readout units": "nM", "IC50": 1.9}
{"compound": "CN(C)CCCOc1nc(N2CC3CC2CN3)c2cc(Cl)c(-c3ccc(F)c4sc(N)nc34)c(F)c2n1 (stereo not drawn)", "target": "KRAS G12D:SOS1 (Homo sapiens, UniProt P01116, G12D)", "readout units": "nM", "IC50": 68}

----------
- target: KRAS G12D:SOS1 (Homo sapiens, UniProt P01116, G12D)
- method: KRAS G12D:SOS1 GDP TR-FRET assay
- assay conditions: GST-KRAS G12D 37.5 nM, GDP 10 μM, His-SOS1 18 nM
Consider the following compounds and their measured IC50 readings.
metric name: IC50

{"compound": "CN1C[C@H](F)C[C@H]1COc1nc(N2CC3CCC(C2)N3)c2cc(C(F)(F)F)c(-c3ccc(F)c4sc(N)nc34)c(F)c2n1", "target": "KRAS G12D:SOS1 (Homo sapiens, UniProt P01116, G12D)", "metric name": "IC50", "endpoint value": "6.5 nM"}
{"compound": "CN(C)CCCOc1nc(N2CC3CCC2CN3)c2cc(Cl)c(-c3ccc(F)c4sc(N)nc34)c(F)c2n1 (stereo not shown)", "target": "KRAS G12D:SOS1 (Homo sapiens, UniProt P01116, G12D)", "metric name": "IC50", "endpoint value": "39 nM"}
{"compound": "CN(C)C1CN(c2nc(N3CCNCC3)c3cc(Cl)c(-c4cc(O)cc5ccccc45)c(F)c3n2)C1 [Example E2]", "target": "KRAS G12D:SOS1 (Homo sapiens, UniProt P01116, G12D)", "metric name": "IC50", "endpoint value": "4850 nM"}
{"compound": "C[C@@H](CN1CCC(F)C1)Oc1nc(N2CC3CCC(C2)N3)c2cc(Cl)c(-c3ccc(F)c4sc(N)nc34)c(F)c2n1 (stereo partly shown)", "target": "KRAS G12D:SOS1 (Homo sapiens, UniProt P01116, G12D)", "metric name": "IC50", "endpoint value": "2.8 nM"}

----------
- target: GDP-loaded KRAS G12D (Homo sapiens, UniProt P01116, G12D)
- Sequence (P01116 1-188 isoform P01116-2 G12D): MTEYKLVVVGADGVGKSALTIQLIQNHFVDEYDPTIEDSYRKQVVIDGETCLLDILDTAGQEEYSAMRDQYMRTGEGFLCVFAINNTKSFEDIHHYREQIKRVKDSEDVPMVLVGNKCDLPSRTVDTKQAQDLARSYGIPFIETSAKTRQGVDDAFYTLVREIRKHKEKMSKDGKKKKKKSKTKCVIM
- method: KRAS G12D Probe Displacement Assay
- Format: binding
- assay conditions: KRAS G12D 0.5 nM, biotinylated probe 2 4 nM; Table 6 letters; read-out: KRAS G12D Probe Displacement Assay IC50 (class)
Examples of molecules with documented IC50 follow.
metric name: IC50

{"molecule": "N#CC1(COc2nc(N3CC4CCC(C3)N4)c3cc(C(F)(F)F)c(-c4ccc(F)c5sc(N)nc45)c(F)c3n2)CC1 [Example E147]", "endpoint value": "< 0.05 µM"}
{"molecule": "CN1C[C@H](F)C[C@]1(C)COc1nc(N2CC3CCC(C2)N3)c2cc(C(F)(F)F)c(-c3ccc(F)c4sc(N)nc34)c(F)c2n1 [Example E103]", "endpoint value": "< 0.05 µM"}
{"molecule": "CC1(COc2nc(N3CC4CCC(C3)N4)c3cc(C(F)(F)F)c(-c4ccc(F)c5sc(N)nc45)c(F)c3n2)COCCO1 (stereo not drawn) [Example E215]", "endpoint value": "< 0.05 µM"}

----------
The following compounds are listed with their measured pIC50 values.
- target: UniProtKB P01116
- method: KRAS WT Probe Displacement Assay
- Type: binding
pIC50: −log10 of the molar value.
metric name: pIC50

{"compound": "Cc1cc(N)nc(-c2c(Cl)cc3c(N4CC5CCC(C4)N5)nc(OCC45CCCN4CC(F)C5)nc3c2F)c1C(F)(F)F (centres unmarked) [Example E50]", "endpoint value": 6.80}
{"compound": "Cc1cc(N)nc(-c2c(Cl)cc3c(N4CC5CCC(C4)N5)nc(OC[C@@]45CCCN4C[C@H](F)C5)nc3c2F)c1C(F)(F)F [Example E49]", "endpoint value": 7.31}

----------
- target: GDP-loaded KRAS G12D (Homo sapiens, UniProt P01116, G12D)
- method: KRAS G12D Probe Displacement Assay
- Type: binding
- assay conditions: KRAS G12D 0.5 nM, biotinylated probe 2 4 nM; Table 6 letters; read-out: KRAS G12D Probe Displacement Assay IC50 (class)
pIC50: −log10 of the molar value.
Reported pIC50 values follow for various molecules
metric name: pIC50

{"molecule": "CC12CC(COc3nc(N4CC5CCC(C4)N5)c4cc(C(F)(F)F)c(-c5ccc(F)c6sc(N)c(C#N)c56)c(F)c4n3)(CO1)C2", "metric name": "pIC50", "endpoint value": "> 7.30"}
{"molecule": "Cc1cc(N)nc(-c2c(Cl)cc3c(N4CC5CCC(C4)N5)nc(OCC4(CO)CC(F)C4)nc3c2F)c1C(F)(F)F (stereo not drawn)", "metric name": "pIC50", "endpoint value": "> 7.30"}
{"molecule": "Cc1cc2[nH]ncc2c(-c2c(Cl)cc3c(N4CC5CCC(C4)N5)nc(OC[C@@]45CCCN4C[C@H](F)C5)nc3c2F)c1Cl", "metric name": "pIC50", "endpoint value": "> 7.30"}
{"molecule": "CC(=O)N1CCCC(COc2nc(N3CC4CCC(C3)N4)c3cc(Cl)c(-c4nc(N)cc(C)c4C(F)(F)F)c(F)c3n2)C1 (stereo not drawn)", "metric name": "pIC50", "endpoint value": "7.00 to 7.30"}
{"molecule": "Nc1nc2c(-c3c(C(F)(F)F)cc4c(N5CC6CCC(C5)N6)nc(OCC5CS(=O)(=O)C5)nc4c3F)ccc(F)c2s1", "metric name": "pIC50", "endpoint value": "> 7.30"}
{"molecule": "C[C@@H](CN1CCC(F)CC1)Oc1nc(N2CC3CCC(C2)N3)c2cc(Cl)c(-c3ccc(F)c4sc(N)c(C#N)c34)c(F)c2n1", "metric name": "pIC50", "endpoint value": "> 7.30"}

----------
Listing of entries alongside the reported IC50.
- target: GDP-loaded KRAS G12D (Homo sapiens, UniProt P01116, G12D)
- method: KRAS G12D Probe Displacement Assay
- Format: binding
- assay conditions: KRAS G12D 0.5 nM, biotinylated probe 2 4 nM; Table 6 letters; read-out: KRAS G12D Probe Displacement Assay IC50 (class)

{"molecule": "COC[C@@]1(COc2nc(N3C4CNCC3COC4)c3cc(F)c(-c4nc(N)cc(C)c4C(F)(F)F)c(F)c3n2)C[C@@H](F)CN1C [Example E137]", "IC50": "100 to 1000 nM"}
{"molecule": "Nc1nc2c(-c3c(C(F)(F)F)cc4c(N5CC6CCC(C5)N6)nc(OCCn5cccn5)nc4c3F)ccc(F)c2s1 [Example E185]", "IC50": "< 50 nM"}
{"molecule": "Nc1nc2c(-c3c(C(F)(F)F)cc4c(N5CC6CCC(C5)N6)nc(OCC5(CO)CC(F)C5)nc4c3F)ccc(F)c2s1 (stereo not drawn) [Example E158]", "IC50": "< 50 nM"}
{"molecule": "Nc1nc2c(-c3c(C4CC4(F)F)cc4c(N5CC6CCC(C5)N6)nc(OC[C@@]56CCCN5C[C@H](F)C6)nc4c3F)ccc(F)c2s1 (stereo partly drawn) [Example E91]", "IC50": "< 50 nM"}
{"molecule": "Cc1cc(N)nc(-c2c(Cl)cc3c(N4CC5CCC(C4)N5)nc(OCC4CS(=O)(=O)C4)nc3c2F)c1C(F)(F)F [Example E228]", "IC50": "< 50 nM"}
{"molecule": "Nc1nc2c(-c3c(C(F)(F)F)cc4c(N5CC6CCC(C5)N6)nc(OC[C@H]5CNC(=O)CO5)nc4c3F)ccc(F)c2s1 [Example E179]", "IC50": "< 50 nM"}
